Listed here are compounds together with their documented Kd.
target: CD33xMIC11; assay: SPR affinity of VHH clone (antibody fusion) to PROTACs; details: CD33xMIC11 immobilized, 25° C., read-out: KD [M] for antibody binding to PROTAC
Record the value in M, omitting the unit from your answer.

| smiles-entry | system | measurement-units | Kd |
| --- | --- | --- | --- |
| Cc1ncsc1-c1ccc(CNC(=O)[C@@H]2C[C@@H](O)CN2C(=O)[C@@H](NC(=O)C2(F)CC2)C(C)(C)C)c(OCCOc2ccc(CN3CCN(c4cc(-c5ccccc5O)nnc4N)CC3)cc2)c1 | CD33xMIC11 | M | 0.00011 |
| Cc1ncsc1-c1ccc([C@H](C)NC(=O)[C@@H]2C[C@@H](O)CN2C(=O)[C@@H](NC(=O)COCCCOCCNC(=O)C[C@@H]2N=C(c3ccc(Cl)cc3)c3c(sc(C)c3C)-n3c(C)nnc32)C(C)(C)C)cc1 | CD33xMIC11 | M | 3.7e-09 |
| CC(=O)N[C@H](C(=O)N1C[C@H](O)C[C@H]1C(=O)NCc1ccc(-c2scnc2C)cc1)C(C)(C)SCCCCCCNC(=O)C[C@@H]1N=C(c2ccc(Cl)cc2)c2c(sc(C)c2C)-n2c(C)nnc21 | CD33xMIC11 | M | 1.9e-10 |

Proceeding to the next compound to report its Kd.
Exam item: For Cc1ncsc1-c1ccc(CNC(=O)[C@@H]2C[C@@H](O)CN2C(=O)[C@@H](NC(=O)CCCCCCCCCCNC(=O)c2cc3c(cc2CS(C)(=O)=O)-c2cn(C)c(=O)c4[nH]cc(c24)CN3c2ncc(F)cc2F)C(C)(C)C)cc1 , what is its reported Kd?
Marked response: 2e-08

====

biological target: MIC2; test: SPR binding of PROTACs to immobilized antibody MIC2; details: MIC2, 1:1 kinetic binding model
reported-property: pKd
Hey, just a heads up that pKd is the negative log base 10 of the concentration in molar.

| smiles-entry | pKd |
| --- | --- |
| CC(=O)N1c2ccc(-c3ccc(C(=O)NCCOCCOCCOCC(=O)N[C@H](C(=O)N4C[C@H](O)C[C@H]4C(=O)NCc4ccc(-c5scnc5C)cc4)C(C)(C)C)cc3)cc2[C@H](Nc2ccc(Cl)cc2)C[C@@H]1C | 9.38 |

Proceeding to the next compound to report its pKd.
Exam item: For Cc1ncsc1-c1ccc(CNC(=O)[C@@H]2C[C@@H](O)CN2C(=O)[C@@H](NC(=O)COCCOCCOCCNC(=O)C[C@@H]2N=C(c3ccc(Cl)cc3)c3c(sc(C)c3C)-n3c(C)nnc32)C(C)(C)C)cc1 , what is its reported pKd?
Marked response: 9.92

====

biological target: CD33xMIC14; assay: SPR affinity of VHH clone (antibody fusion) to PROTACs; settings: CD33xMIC14 immobilized, 25° C., read-out: KD [M] for antibody binding to PROTAC
Listed here are molecules together with their documented Kd.
Record the value in M, omitting the unit from your answer.

| molecule | measurement-units | Kd |
| --- | --- | --- |
| CC(=O)N[C@H](C(=O)N1C[C@H](O)C[C@H]1C(=O)NCc1ccc(-c2scnc2C)cc1)C(C)(C)SCCCCCCNC(=O)C[C@@H]1N=C(c2ccc(Cl)cc2)c2c(sc(C)c2C)-n2c(C)nnc21 [AT1] | M | 2.9e-09 |

Exam item: For Cc1ncsc1-c1ccc(CNC(=O)[C@@H]2C[C@@H](O)CN2C(=O)[C@@H](NC(=O)C2(F)CC2)C(C)(C)C)c(OCCOc2ccc(CN3CCN(c4cc(-c5ccccc5O)nnc4N)CC3)cc2)c1 [ACBI1] , what is its reported Kd?
Marked response: 9.3e-07

Exam item: For Cc1ncsc1-c1ccc(CNC(=O)[C@@H]2C[C@@H](O)CN2C(=O)[C@@H](NC(=O)CCCCCCCCCCNC(=O)c2cc3c(cc2CS(C)(=O)=O)-c2cn(C)c(=O)c4[nH]cc(c24)CN3c2ncc(F)cc2F)C(C)(C)C)cc1 [GNE987] , what is its reported Kd?
Marked response: 1e-08

Exam item: For Cc1ncsc1-c1ccc([C@H](C)NC(=O)[C@@H]2C[C@@H](O)CN2C(=O)[C@@H](NC(=O)COCCCOCCNC(=O)C[C@@H]2N=C(c3ccc(Cl)cc3)c3c(sc(C)c3C)-n3c(C)nnc32)C(C)(C)C)cc1 [ARV771] , what is its reported Kd?
Marked response: 1.4e-07

Each recorded value in this set is attributed to patent US20250312468A1.
